Recorded values, source PubChem BioAssay.

- Tested on: Wnt5a (protein binding on small-molecule microarray)
- PROTOCOL SUMMARY: Wnt5a binders on small-molecule microarray, primary screen, biophysical, 635/667 nm fluorescence (AID 1142);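 also: fluorescence read at 667 nm with signal to noise per printed feature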
- ASSAY SETUP: 635 nm fluorescence, higher = more signal
The label depends only on composite z-score: True if it is at least 0.08, False if it is smaller.

As a guide, the following entries are already answered.
>  <COMPOUND>
CC1(C)[C@@H]2CC(C(O)C3C=CC4C(=O)N(c5ccccc5)C(=O)C4N3Nc3ccccc3)=C[C@H]1C2 (some centres not stated)

>  <CATEGORY>
True

$$$$
>  <COMPOUND>
COc1ccc(CCNC(=O)[C@@]2(Sc3ccc(C)cc3)CC(=O)N(C3CCCCC3)[C@@H]2c2ccc(CO)cc2I)cc1

>  <CATEGORY>
True

$$$$
>  <COMPOUND>
C=CCN(Cc1ccccc1)C(=O)C(c1cccs1)N(CCOCCO)C(=O)/C=C\C(=O)O (configuration not stated)

>  <CATEGORY>
False

$$$$
>  <COMPOUND>
COC(=O)[C@@]1(Cc2ccc(F)cc2)[C@H]2c3cc(C(=O)N4CCCC4)n(Cc4cc(C)n(C)n4)c3C[C@H]2CN1C(=O)c1ccccc1

>  <CATEGORY>
True

$$$$
>  <COMPOUND>
COc1ccc(C(=O)Nc2ccc(CN3C(=O)[C@@]4(O[C@@H](CCn5cc([C@H](O)c6ccccc6)nn5)[C@H]([Si](C)(C)c5ccc(OC)cc5)[C@H]4C)c4ccccc43)cc2)cc1

>  <CATEGORY>
False

$$$$

Asked: Would you say `COC(=O)[C@@]1(Cc2ccc(OC)cc2)[C@H]2c3cc(C(=O)N4CCCC4)n(Cc4ccc(OC)c(OC)c4)c3C[C@H]2CN1C(=O)c1ccccc1` shows composite z-score at minimum 0.08?
Given back: True

Asked: Would you say `C=CCOC(=O)[C@H]1[C@@H]2C(=O)O[C@@H](c3ccccc3)[C@@H](c3ccccc3)N2[C@@H](c2ccc(OCCOC(=O)[C@@H]3C[C@@H]4C(=O)N5CCC[C@H]5C(=O)N4[C@@H]3c3cccc(OCCO)c3)cc2)[C@]12C(=O)Nc1ccccc12` shows composite z-score at minimum 0.08?
Given back: True
